Tested on: SN12C
Assay: NCI tumour cell line growth inhibition, 48 h
Activity calls are given as the source filed them. Cut-off read from the data, not from the text of the source: active = GI50 up to about 1.1 µM and inactive = higher.
Assignment: determine reported GI50 for the given compounds.

Inquiry: Form field: reported GI50 of `CCc1ccc(COC(=O)C2=C(C)NC(C)=C(C(=O)OCc3ccc(CC)cn3)C2C2=COCCO2)nc1`
Reply text: > 10 µM (inactive)

Inquiry: Form field: reported GI50 of OCC1OC(n2cnc3c2NC=NC[C@H]3O)C(O)C1O (some centres undefined)
Reply text: 293 µM (inactive)

Inquiry: Form field: reported GI50 of O=C1C(CN2CCCCC2)CCCC1CN1CCCCC1 (centres undefined)
Reply text: 26.2 µM (inactive)

Inquiry: Form field: reported GI50 of `O=C(CCOS(=O)(=O)CF)N1CCN(C(=O)CCOS(=O)(=O)CF)CC1`
Reply text: 35.1 µM (inactive)

Inquiry: Form field: reported GI50 of `O=[N+]([O-])c1ccc(Sc2c3ccccc3nc3ccccc23)cn1`
Reply text: 18.7 µM (inactive)

Inquiry: Form field: reported GI50 of `O=C1O/C(=C/c2ccccc2)C(c2ccccc2)=C1O`
Reply text: 33 µM (inactive)

Inquiry: Form field: reported GI50 of COc1cccc2c1C(=O)c1c(O)c3c(c(O)c1C2=O)CC(O)(C(C)=O)CC3OC1CC([N+](C)(C)C)C(O)C(C)O1 (centres undefined)
Reply text: 50.7 µM (inactive)

Inquiry: Form field: reported GI50 of `C=C[C@@](C)(/C=C/c1ccc(O)cc1)CCC=C(C)C`
Reply text: 18.5 µM (inactive)

Inquiry: Form field: reported GI50 of `COc1ccc(N(c2ccc(C#N)cc2)c2ccc(C#N)cc2)cc1`
Reply text: > 100 µM (inactive)

----------
Tested on: RPMI-8226
Assay: NCI tumour cell line growth inhibition, 48 h
Calls of active or inactive are those of the source. Cut-off read from the data, not from the text of the source: active = GI50 up to about 1.1 µM and inactive = higher.
The reply should name one outcome from active, inactive

Inquiry: Hi team, can someone confirm the assay call for `c1ccc(-c2ccc(-c3ccc(C4=NCCN4)cc3)o2)cc1` ?
Reply text: active

Inquiry: Hi team, can someone confirm the assay call for CON(C)C(=O)C(Cc1ccccc1)NC(=O)OC(C)(C)C (stereo unspecified) ?
Reply text: inactive

Inquiry: Hi team, can someone confirm the assay call for `Clc1ccccc1C(n1ncc2ccccc21)n1ncc2ccccc21` ?
Reply text: inactive

Inquiry: Hi team, can someone confirm the assay call for `Clc1ccc(/C=N/C23CC4CC(CC(C4)C2)C3)c(Cl)c1` ?
Reply text: inactive

Inquiry: Hi team, can someone confirm the assay call for O=C1c2ccccc2-n2nnnc2C2CSCN12 (stereo unspecified) ?
Reply text: inactive

Inquiry: Hi team, can someone confirm the assay call for `N#C/C(=C1/c2cc([N+](=O)[O-])ccc2-c2c1cc([N+](=O)[O-])cc2[N+](=O)[O-])N1CCCCC1` ?
Reply text: inactive

----------
System: NCI-H460
Assay: NCI tumour cell line growth inhibition, 48 h
Active and inactive are the calls of the source. Cut-off read from the data, not from the text of the source: active = GI50 up to about 1.1 µM and inactive = higher.
The reply should name one outcome from label 1 (active), label 0 (inactive)

Inquiry: Hi team, can someone confirm the assay call for COc1cc2c(c(OC)c1OC)-c1ccc(SC)c(=O)cc1C(CC(=O)Oc1ccccc1F)C2 (centres undefined) ?
Reply text: label 1

Inquiry: Hi team, can someone confirm the assay call for `COc1c(CCl)cc(-c2cc(=O)c3ccccc3s2)cc1CCl` ?
Reply text: label 0

Inquiry: Hi team, can someone confirm the assay call for `COCCOCN(C(=O)C1=CCC2(CC1)OCCO2)c1ccccc1I` ?
Reply text: label 0

Inquiry: Hi team, can someone confirm the assay call for `Cn1c(=O)c2nc3c(=O)n(C)c(=O)n(CC(N)=O)c3nc2n(C)c1=O` ?
Reply text: label 0

Inquiry: Hi team, can someone confirm the assay call for `Oc1ccc(C(=C(Br)c2ccccc2)c2ccc(O)cc2)cc1` ?
Reply text: label 0

Inquiry: Hi team, can someone confirm the assay call for `CCOC(=O)CCc1c(C)c2c(OC)cc(OC)cc2oc1=O` ?
Reply text: label 0

Inquiry: Hi team, can someone confirm the assay call for `CN1C2CCC1/C(=C/c1cccc3c1OCO3)C(=O)/C2=C\c1cccc2c1OCO2` ?
Reply text: label 0

Inquiry: Hi team, can someone confirm the assay call for `Nc1nc(Cl)cc(NCC2(CCO)CCC2)n1` ?
Reply text: label 0

Inquiry: Hi team, can someone confirm the assay call for `COc1cc2nc(-c3cccs3)oc(=O)c2cc1OC` ?
Reply text: label 0

These entries and their values trace back to ChEMBL document CHEMBL1201862.
